# Lookup of reported growth keyed by entry
Tested on: M14 melanoma
assayName: NCI-60 one-dose screen, 48 h (100 = growth as untreated, 0 = no growth, -100 = all killed)
statedConditions: 10 µM unless noted
Compounds without any hit were thinned out: in the full panel of roughly 83,000, 20% have a hit. Calls of active or inactive are those of the source. The calls were made as follows: active = growth percent below 10; inactive = the rest.

Below, 2 molecules whose answers are already recorded.
COc1cc2cc(CN3CCN(c4nccc(-c5ccc6ccccc6c5)n4)CC3)c(=O)[nH]c2cc1OC
109% (inactive)
COc1cc(CC(=O)n2ncc3ccc(N)cc32)cc(OC)c1OC
102% (inactive)

Req: Any idea what its growth is? The molecule is COc1cc(/C=N/NC(=O)c2cnn3c2NC(c2ccccc2)C3)ccc1OCc1ccccc1 (stereo not given)
Resp: 14.8% (inactive)

Req: Give the measured growth of `Cc1cnc(C(=O)Nc2nc3ccc(S(=O)(=O)Nc4ccc(C(C)(C)C)cc4)cc3[nH]2)cn1` .
Resp: 1.89% (active)

Req: Which growth is reported for this molecule? `O=C1c2ccc3c4c(ccc(c24)C(=O)N1CCCNCc1ccccc1)C(=O)N(CCCNCc1ccccc1)C3=O`
Resp: -76% (active)

====

System: MOLT-4 leukemia
assayName: NCI-60 one-dose screen, 48 h (100 = growth as untreated, 0 = no growth, -100 = all killed)
statedConditions: 10 µM unless noted
Compounds without any hit were thinned out: in the full panel of roughly 83,000, 20% have a hit.
Property: growth; scope: individual compounds
Kindly provide the numeric value in % only, without the unit symbol.

O=S(=O)(NCCNc1nccc(-c2c(-c3cccc(O)c3)nc3occn23)n1)c1ccccc1
94.2
O=S(=O)(NCCNc1nccc(-c2c(-c3cccc(O)c3)nc3occn23)n1)c1ccc(C(F)(F)F)cc1
111
CCCCCCOc1ccc(/C=N/Nc2cc(C)nc3ccc(Cl)cc23)cc1
-26
COc1ccc(N2CCN(c3ccc(NC4=C(Cl)C(=O)c5ncccc5C4=O)cc3)CC2)cc1
53.3
COc1cc(/C=N/O)nc(-c2ccccn2)c1
12

Proceeding to the next compound to report its growth.
Req: Endpoint output: growth of `O=C1Nc2cc(-c3cccc([N+](=O)[O-])c3)ccc2/C1=C/c1ccc[nH]1` . Value?
Resp: 97.4

====

Tested on: MALME-3M melanoma
assayName: NCI-60 one-dose screen, 48 h (100 = growth as untreated, 0 = no growth, -100 = all killed)
statedConditions: 10 µM unless noted
This is part of a sample that, as a whole, favours compounds with a hit. Of some 83,000 tested, about 20% had one in any assay.
measurementType: growth (%)
The response must be a number in % with no trailing unit.

Example entries begin here.
COc1cccc(-c2nc3occn3c2-c2ccnc(NCCNS(=O)(=O)c3ccc(C(F)(F)F)cc3)n2)c1
107
C=C1C(=O)O[C@H]2[C@H]1CC/C(CNC(=O)CCc1ccc(OC)cc1)=C\CC[C@@]1(C)O[C@@H]21
69.2
CC(=O)[C@@H]1CC[C@]2(CO)CC[C@]3(C)[C@H](CC[C@@H]4[C@@]5(C)CCCNC(C)(C)[C@@H]5CC[C@]43C)[C@@H]12
92.9
O=C(Nc1ccc(F)cc1)Nc1ccc(NC(=O)c2cc(Cl)nc3ccccc23)cc1
53.7
COc1cc(/C=N/NC(=O)c2cnn3c2NC(c2ccccc2)C3)ccc1Oc1ccccc1 (stereo not drawn)
27.4

Req: Requested read-out: growth. Entry: `O=C(O)c1ccc(-c2nn(-c3ccc(C(F)(F)F)cc3)cc2CNc2ccc(Oc3ccccc3)cc2)cc1`
Resp: 107

Req: Please give the measured growth for this compound: `O=C1/C=C/[C@@H](O)[C@@H]2C[C@@H](O)C[C@H]2/C=C/CCC[C@H](CCc2ccc3ncccc3c2)O1`
Resp: -17.8

Req: Reported growth for `COc1cc(-c2n/c(=C\c3c(O)[nH]c4ccc(Cl)cc34)cc3c2=Nc2ccccc2-3)ccc1F` : what is it?
Resp: -66.4

====

Test system: MOLT-4 leukemia
assayName: NCI-60 one-dose screen, 48 h (100 = growth as untreated, 0 = no growth, -100 = all killed)
statedConditions: 10 µM unless noted
The panel holds about 83,000 compounds, 20% with a hit somewhere; the sample as a whole holds those more often.
measurementType: growth (%)
Answer with a number only, understood to be in %.

Example entries and their recorded answers appear below.
CCCCCN1C=C/C(=C\C(=O)N(C)c2ccccc2Br)c2ccccc21
89.3
CN(C)c1ccc(Nc2c3ccccc3nc3cc(NC(=O)CCN4CCCC4)ccc23)cc1
-8.89
N#C/C(=C\c1ccc([N+](=O)[O-])s1)c1nc2cc(Cl)ccc2s1
8.53

Req: Suppose we examine the compound `O=C(C[n+]1cccc2ccccc21)c1ccc(O)c(O)c1` ; what growth value has been reported?
Resp: 6.56

Req: Name the recorded growth for `C=C1C(=O)O[C@H]2[C@H]1CC/C(CNC(=O)CCc1ccc(OC)cc1)=C\CC[C@@]1(C)O[C@@H]21` .
Resp: 67.8

Req: Endpoint output: growth of `COc1cc2oc(-c3cccc(C(=O)Nc4ccc(Br)cc4)c3)cc(=O)c2c(OC)c1OC` . Value?
Resp: 49.5

Req: If you can, please state the reported growth value of `c1ccc2cc(Cn3c(-c4cccc5ccccc45)[n+](Cc4ccc5ccccc5c4)c4c5ccccc5c5ccccc5c43)ccc2c1` .
Resp: -55.3

Req: Name the recorded growth for `C=C(C)[C@@H]1CC[C@]2(C(=O)N[C@H](CO)Cc3ccccc3)CC[C@]3(C)[C@H](CC[C@@H]4[C@@]5(C)CCCNC(C)(C)[C@@H]5CC[C@]43C)[C@@H]12` .
Resp: -62.6

====

System: IGROV1 ovarian
assayName: NCI-60 one-dose screen, 48 h (100 = growth as untreated, 0 = no growth, -100 = all killed)
statedConditions: 10 µM unless noted
This is part of a sample that, as a whole, favours compounds with a hit. Of some 83,000 tested, about 20% had one in any assay.
measurementType: growth (%)
Please reply with the bare figure in % and do not write the unit itself.

Known results for molecules:
COc1ccc(-c2nc(S(=O)(=O)c3ccccc3)c(S(=O)CC(=O)N3CCC(C)CC3)o2)cc1 (centres undefined)
25.6
O=C(c1ccccc1)N1N=C(c2ccc(-n3ccc(C(F)(F)F)n3)c(F)c2)CC1c1ccc[nH]1 (centres undefined)
108
CC1(C)c2[nH]c3ccccc3c2C[C@]2(C)[C@H]3C(=O)C=C4[C@@H]5C[C@@](C)(C(N)=O)CC[C@]5(C)CC[C@@]4(C)[C@]3(C)CC[C@@H]12
84.4
Cc1ccc(-n2c3c(c(-c4ccccc4)c2-c2ccccc2)C2=NCCN2C=N3)cc1
62.6
COc1ccc(C(=O)CSc2nc(-c3cc(OC)ccc3OC)cc(-c3ccc(Cl)cc3)c2C#N)cc1
62.4

Attention now turns to another entry.
Req: Kindly state the measured growth obtained for `O=C(Nc1ccc(-c2ccc3c(c2)NC(=O)/C3=C\c2ccc[nH]2)cc1)NC1CC1` with IGROV1 ovarian.
Resp: 96.6

====

System: RXF 393 renal
assayName: NCI-60 one-dose screen, 48 h
statedConditions: 10 µM unless noted
Compounds without any hit were thinned out: in the full panel of roughly 83,000, 20% have a hit. Calls of active or inactive are those of the source. The calls were made as follows: active = growth percent below 10; inactive = the rest.
Your reply should match one of these outcome classes. active, inactive

Would you please look over these solved cases?
O=C(CCN1CCCC1)Nc1ccc2c(NCc3ccccc3)c3ccccc3nc2c1
active
CC(C)N1C(=O)S/C(=C2/SC(=O)N(C(C)C)C2=O)C1=O
inactive
CCOC(=O)Nc1ccc(-c2ccc3c(c2)NC(=O)/C3=C\c2ccc[nH]2)cc1
inactive
COc1cc(/C(C)=C(\c2ccc(Cl)cc2)c2ccc(OCCN(C)C)cc2)ccc1F
inactive
O=c1[nH]nc(-c2ccccc2)c2sc3ncc(-c4ccc(Br)cc4)n3c12
inactive

Then this molecule:
Req: What was the test verdict on `NC(=NCCCOc1ccc(F)cc1)Nc1ccc(I)cc1` ?
Resp: inactive

====

Test system: OVCAR-8 ovarian
assayName: NCI-60 one-dose screen, 48 h
statedConditions: 10 µM unless noted
About 83,000 compounds went through this panel and 20% of them were active in at least one assay; those are over-represented in the sample as a whole. Activity calls are given as the source filed them. The calls were made as follows: active = growth percent below 10; inactive = the rest.
Hello, when you answer, please use one of the following outcomes: true = active, false = inactive

c1ccc(Cn2cnc3ccc(-c4nc(-c5ccc6c(c5)ncn6C5CCCCC5)cn5ccnc45)cc32)cc1
true
COc1cc(/C=C2\COc3ccc(-c4ccccc4)cc3C2=O)cc(OC)c1
false
Cc1cc2c(C(=O)NCC#N)cccc2n1-c1nc2c(c(NCc3ccccc3)n1)CCCC2
true

Req: Please state the recorded outcome for this molecule: `C#CCNC(=O)c1cccc2c1cc(C)n2-c1nc2c(c(NCc3ccccc3)n1)CCCC2`
Resp: false

Req: Which outcome was entered for the molecule COc1cc(NC(C)CCCNC(=O)CCC(=O)NCCCNCCCCCCCCCCNCCCNC(=O)CCC(=O)NCCCC(C)Nc2cc(OC)cc3cccnc23)c2ncccc2c1 (stereo not given) in this test?
Resp: false

Req: # lookup: test call for `CCC(CC)NCC(C)(C)O`
Resp: false

Req: Recorded test call requested for `C=CCn1c(-c2ccc(-c3nc4ccc(C)cc4[nH]3)cc2)n[nH]c1=S`
Resp: false

Req: Test call for this molecule, please: `COc1cc2c(=O)n(CCCN(C)C)c3c4cc5c(cc4ccc3c2cc1OC)OCO5`
Resp: false

Req: Outcome? `NC1=NN=C(N)C1=Cc1cc2ccccc2n2nnnc12`
Resp: false

Req: Assay result, entry `O=C(Nc1ccc(F)cc1)Nc1ccc(NC(=O)c2cc(Cl)nc3ccccc23)cc1` — outcome?
Resp: false
